Reported pIC50 by item:
assay: Cytotoxicity against human A2780S cells by CyQuant proliferation assay
Assay type: functional, cell-based
appliedConditions: A2780
pIC50: −log10 of the molar value.
measurementKind: pIC50

>  <smilesInput>
COc1c(Br)cc(C/C(=N\O)C(=O)NCCCOc2c(Br)cc(CCN)cc2Br)c(O)c1Br

>  <measurementKind>
pIC50

>  <comparator>
=

>  <result>
4.70

$$$$
>  <smilesInput>
CNCCCOc1c(Br)cc(CCNC(=O)/C(Cc2ccc(O)c(Br)c2)=N/O)cc1Br

>  <measurementKind>
pIC50

>  <comparator>
<

>  <result>
4.30

$$$$
